# Target system: baculovirus-expressed ALK (Homo sapiens, UniProt Q9UM73)
# Construct: host or cells: baculovirus expression system
# Sequence (Q9UM73 19-1620): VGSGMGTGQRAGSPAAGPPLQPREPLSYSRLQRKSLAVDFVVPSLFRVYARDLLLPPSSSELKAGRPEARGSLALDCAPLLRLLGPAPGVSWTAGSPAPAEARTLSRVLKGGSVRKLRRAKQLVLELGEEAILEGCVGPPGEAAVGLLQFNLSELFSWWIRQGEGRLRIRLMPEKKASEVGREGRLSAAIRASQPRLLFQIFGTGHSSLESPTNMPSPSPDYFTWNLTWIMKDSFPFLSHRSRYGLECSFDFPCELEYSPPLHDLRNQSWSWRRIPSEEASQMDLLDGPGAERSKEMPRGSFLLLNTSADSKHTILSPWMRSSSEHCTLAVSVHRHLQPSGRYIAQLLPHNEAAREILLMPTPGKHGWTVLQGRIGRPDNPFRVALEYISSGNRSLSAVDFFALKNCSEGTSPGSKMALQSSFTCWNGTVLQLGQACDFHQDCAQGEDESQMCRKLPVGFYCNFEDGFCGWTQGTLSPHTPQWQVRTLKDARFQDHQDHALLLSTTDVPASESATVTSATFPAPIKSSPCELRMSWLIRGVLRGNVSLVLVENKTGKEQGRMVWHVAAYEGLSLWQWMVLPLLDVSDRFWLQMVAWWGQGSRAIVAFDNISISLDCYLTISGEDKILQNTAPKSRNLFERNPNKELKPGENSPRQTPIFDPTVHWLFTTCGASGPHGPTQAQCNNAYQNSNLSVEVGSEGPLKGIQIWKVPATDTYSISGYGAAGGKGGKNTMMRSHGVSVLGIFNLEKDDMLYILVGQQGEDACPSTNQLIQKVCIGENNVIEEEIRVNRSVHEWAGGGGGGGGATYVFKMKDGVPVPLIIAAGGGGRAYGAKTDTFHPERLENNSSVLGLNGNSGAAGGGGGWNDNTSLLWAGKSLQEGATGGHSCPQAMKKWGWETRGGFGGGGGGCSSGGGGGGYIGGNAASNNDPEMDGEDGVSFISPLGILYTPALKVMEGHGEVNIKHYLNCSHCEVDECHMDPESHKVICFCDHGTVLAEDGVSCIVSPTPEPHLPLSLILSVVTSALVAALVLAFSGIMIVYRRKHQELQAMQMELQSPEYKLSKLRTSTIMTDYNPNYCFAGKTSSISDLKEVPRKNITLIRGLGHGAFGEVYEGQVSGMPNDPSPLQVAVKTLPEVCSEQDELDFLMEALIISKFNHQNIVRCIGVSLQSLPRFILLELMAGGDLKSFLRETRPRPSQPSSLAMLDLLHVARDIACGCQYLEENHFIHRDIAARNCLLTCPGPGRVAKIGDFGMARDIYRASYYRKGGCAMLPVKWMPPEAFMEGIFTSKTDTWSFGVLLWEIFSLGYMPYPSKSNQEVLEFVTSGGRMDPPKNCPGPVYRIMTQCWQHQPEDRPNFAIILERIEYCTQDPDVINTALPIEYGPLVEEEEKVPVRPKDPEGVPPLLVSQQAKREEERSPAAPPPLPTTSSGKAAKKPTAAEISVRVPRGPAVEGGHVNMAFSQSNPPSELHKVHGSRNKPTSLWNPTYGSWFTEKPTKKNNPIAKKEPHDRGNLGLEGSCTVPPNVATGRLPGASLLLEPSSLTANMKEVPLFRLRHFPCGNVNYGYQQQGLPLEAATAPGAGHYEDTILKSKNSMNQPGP
# Test description: ALK Kinase Assay (ELISA-type, time-resolved fluorescence)
# Assay type: biochemical
# Test conditions: 1 μM ATP (Km level), 30 ng/ml ALK, 37° C., 15 minutes; read-out: ALK Activity (ALK kinase inhibition, IC50 class)
pIC50: −log10 of the molar value.
Quantity: pIC50

Please review the following examples before continuing.
Molecule	pIC50
COc1cc2c(cc1Nc1ncc(Cl)c(Nc3ccccc3OCC#N)n1)CCN(CC(=O)N(C)C)CC2	> 7.00
CNC(=O)c1sccc1Nc1nc(Nc2ccc3c(c2)NC(=O)C(NC(C)=O)CC3(C)C)ncc1Cl (stereo not shown)	5.00 to 6.00
COc1cc2c(cc1Nc1ncc(Cl)c(Nc3ccc[nH]c3=O)n1)CCN(CC(=O)N(C)C)CC2	> 7.00
COCCN1CCc2ccc(Nc3ncc(Cl)c(N[C@H]4CC[C@H](N(CC#N)S(C)(=O)=O)CC4)n3)cc2CC1	6.00 to 7.00
COc1cc2c(cc1Nc1ncc(Cl)c(Nc3cc(C(N)=O)ccc3OC)n1)CCN(C(=O)CN(C)C)CC2	5.00 to 6.00
COc1cc2c(cc1Nc1ncc(Cl)c(Nc3ccccc3S(=O)(=O)N(C)C)n1)CCC(N1CCN(C)CC1)CC2 (stereo not shown)	> 7.00

// moving on: another record for pIC50
Given item C#CCNC(=O)c1cccc(F)c1Nc1nc(Nc2ccc3c(c2)NC(=O)C(NC(=O)C(F)(F)F)CC3(C)C)ncc1Cl (stereo not shown) , the value recorded as its pIC50 is 6.00 to 7.00

Values compiled from patent US8148391B2.
